Reported logP values follow for various compounds
Test: logP determination via retention times, calibrated with unbranched alkan-2-ones
Assay type: physicochemical
Settings: HPLC on reversed-phase C18 column (EEC Directive 79/831 Annex V.A8); method *: 40° C.; 0.1% aqueous formic acid and acetonitrile; linear gradient 10% to 95% acetonitrile
Marks after values point to notes of the source that are not given here.

Use the examples below as a reference point.
CS(=O)(=O)c1cccc(Nc2ncc(Cl)c(NC3CC3)n2)c1 1.63*
Cc1cc(O)ccc1Nc1ncc(Cl)c(NC2CC2)n1 1.09*
CSc1cccc(Nc2ncc(C(F)(F)F)c(NCC3CC3)n2)c1 3.41*
CC(=O)c1cc(Nc2ncc(Cl)c(NC3CC3)n2)ccc1Cl 2.43*

Q: For the compound shown here, `O=C1CCCc2ccc(Nc3ncc(Cl)c(NC4CC4)n3)cc2N1` , give the reported logP.
Ans: 1.41*

Q: Moving on to the next compound: `FC(F)(F)Nc1cccc(Nc2ncc(Cl)c(NC3CC3)n2)c1`
Ans: 3.55*

Q: Try this compound next: `Clc1cnc(Nc2cccc(-c3cccs3)c2)nc1NC1CC1`
Ans: 2.9*

Q: Could you do the same for `Clc1cnc(Nc2ccc(-c3nccs3)cc2)nc1NC1CC1` , please?
Ans: 2.32*

Q: Would you kindly repeat that for `COc1cc(Nc2ncc(Br)c(NCC3CC3)n2)cc(OC)c1OC` ?
Ans: 1.88*

Q: Now this one: `COC(=O)Nc1cccc(Nc2ncc(Cl)c(NC3CC3)n2)c1`
Ans: 1.44*

Q: // next record `CC(=O)c1cccc(Nc2ncc(C(F)(F)F)c(NCC3CC3)n2)c1`
Ans: 2.77*

* * *

Assay: logP determination via retention times, calibrated with unbranched alkan-2-ones
Type: physicochemical
Conditions: HPLC on reversed-phase C18, method *: 40° C., 0.1% aqueous formic acid and acetonitrile, linear gradient 10% to 95% acetonitrile
Marks after values point to notes of the source that are not given here.
Recorded metric: logP

Examples with their reported logP follow.
Compound	logP
O=C(c1ccc(Nc2ncc(Cl)c(NCC3CC3)n2)cc1)N1CCOCC1 [compound 696]	1.59*
Oc1ccc(Nc2ncc(Cl)c(NCC3CC3)n2)c(F)c1 [compound 694]	1.46*
CC(Nc1nc(Nc2ccc(F)cc2)ncc1Cl)C1CC1 (centres unmarked) [compound 167]	2.27*
CCOc1cccc(Nc2ncc(Br)c(NC3CC3)n2)c1 [compound 751]	2.18*

As a next step, examine the compound that follows.
Q: Report logP for COc1ccc(Nc2ncc(Cl)c(NCC3CC3)n2)cc1OC [compound 686] please.
Ans: 1.63*
